// data source = patent US10457703B2

Assignment: determine reported Emax for the given molecules.
Molecular target: human FXR (NR1H4) (Homo sapiens (Human))
Sequence (Q96RI1 whole entry, the tested form may be a part): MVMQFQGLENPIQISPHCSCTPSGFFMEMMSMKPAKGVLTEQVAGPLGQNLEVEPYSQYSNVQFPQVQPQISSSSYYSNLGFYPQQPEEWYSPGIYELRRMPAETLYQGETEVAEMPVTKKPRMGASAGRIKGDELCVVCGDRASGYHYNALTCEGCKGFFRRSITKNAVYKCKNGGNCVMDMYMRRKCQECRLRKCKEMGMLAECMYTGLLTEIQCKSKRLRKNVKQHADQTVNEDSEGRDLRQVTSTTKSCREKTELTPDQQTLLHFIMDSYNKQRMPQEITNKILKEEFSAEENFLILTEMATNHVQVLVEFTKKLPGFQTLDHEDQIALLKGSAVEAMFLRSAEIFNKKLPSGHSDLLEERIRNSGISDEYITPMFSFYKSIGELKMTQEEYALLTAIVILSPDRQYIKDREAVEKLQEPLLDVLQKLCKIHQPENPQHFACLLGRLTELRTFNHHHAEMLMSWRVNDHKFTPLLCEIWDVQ
Test: Human FXR (NR1H4) Assay (Gal4 promoter driven luciferase reporter, Indigo Bioscience kit);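 further: 100% equals the efficacy of CDCA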; on Efficacy (%): efficacy normalized to CDCA set as 100%
Type: cell-based
Conditions: read-out: Efficacy (%)
Description: ASSAYS Human FXR (NR1H4) Assay Determination of a ligand mediated Gal4 promoter driven transactivation to quantify ligand binding mediated activation of FXR. […] The principle application of this reporter assay system is to quantify functional activity of human FXR. […] Luminescence intensity of the reaction is quantified using a plate-reading luminometer, Envision. […] Cells were incubated for additional 22 hours before luciferase activities were measured. […] Read time may be 0.5 second (500 mSec) per well.
Use % as the unit, but write only the number.

[in] Please list Emax recorded for the molecule CC[C@H]1[C@@H](O)[C@@H]2[C@H](CC[C@]3(C)[C@@H]([C@H](C)CCOC(=O)N4CC[C@H](CO)C4)CC[C@@H]23)[C@@]2(C)CC[C@@H](O)C[C@@H]12
[out] 198

[in] Please list Emax recorded for the molecule CC[C@H]1[C@@H](O)[C@@H]2[C@H](CC[C@]3(C)[C@@H]([C@H](C)CCOC(=O)NS(=O)(=O)c4ccc(C(C)(C)C)cc4)CC[C@@H]23)[C@@]2(C)CC[C@@H](O)C[C@@H]12
[out] 235

[in] Please list Emax recorded for the molecule CC[C@H]1[C@@H](O)[C@@H]2[C@H](CC[C@]3(C)[C@@H]([C@H](C)CCOC(=O)NS(=O)(=O)C4CCCCC4)CC[C@@H]23)[C@@]2(C)CC[C@@H](O)C[C@@H]12
[out] 242

[in] Please list Emax recorded for the molecule CC[C@H]1[C@@H](O)[C@@H]2[C@H](CC[C@]3(C)[C@@H]([C@H](C)COC(=O)NS(=O)(=O)c4ccc(C5CCCCC5)cc4)CC[C@@H]23)[C@@]2(C)CC[C@@H](O)C[C@@H]12
[out] 224

[in] Please list Emax recorded for the molecule CC[C@H]1[C@@H](O)[C@@H]2[C@H](CC[C@]3(C)[C@@H]([C@H](C)CCOC(=O)N[C@H](C(=O)O)C(C)C)CC[C@@H]23)[C@@]2(C)CC[C@@H](O)C[C@@H]12
[out] 278

[in] Please list Emax recorded for the molecule CC[C@H]1[C@@H](O)[C@@H]2[C@H](CC[C@]3(C)[C@@H]([C@H](C)CCOC(=O)NCC4CCCCC4)CC[C@@H]23)[C@@]2(C)CC[C@@H](O)C[C@@H]12
[out] 459

[in] Please list Emax recorded for the molecule CC[C@H]1[C@@H](O)[C@@H]2[C@H](CC[C@]3(C)[C@@H]([C@H](C)CCOC(=O)N4CCCCC4)CC[C@@H]23)[C@@]2(C)CC[C@@H](O)C[C@@H]12
[out] 223

[in] Please list Emax recorded for the molecule CC[C@H]1[C@@H](O)[C@@H]2[C@H](CC[C@]3(C)[C@@H]([C@H](C)COC(=O)NS(=O)(=O)c4ccc(-n5cnnn5)cc4)CC[C@@H]23)[C@@]2(C)CC[C@@H](O)C[C@@H]12
[out] 204

[in] Please list Emax recorded for the molecule CC[C@H]1[C@@H](O)[C@@H]2[C@H](CC[C@]3(C)[C@@H]([C@H](C)CCOC(=O)NS(=O)(=O)c4cccc(OC(F)(F)F)c4)CC[C@@H]23)[C@@]2(C)CC[C@@H](O)C[C@@H]12
[out] 396

[in] Please list Emax recorded for the molecule CC[C@H]1[C@@H](O)[C@@H]2[C@H](CC[C@]3(C)[C@@H]([C@H](C)COC(=O)NS(=O)(=O)N(C)C)CC[C@@H]23)[C@@]2(C)CC[C@@H](O)C[C@@H]12
[out] 168
